From: PubChem BioAssay (NCI)

experimental-details: NCI Yeast Anticancer Drug Screen. Data for the mlh1 rad18 strain (AID 175)
measurement-context: S. cerevisiae mlh1 rad18 strain growth inhibition; at 50.0 µM; active compounds read high
The panel holds about 79,000 compounds, 15% with a hit somewhere; the sample as a whole holds those more often.
Exercise: for every item that follows, state its recorded growth inhibition.
Answers are plain numbers, in %.

Examples with answers:
{"compound": "CC(=O)Nc1ccc(S(=O)(=O)N/N=C/c2ccco2)cc1", "growth inhibition (%)": 33.6}
{"compound": "COc1ccc2[nH]c3c(c2c1)[C@H](c1ccccc1)C[C@@H]1C(=O)N(c2ccccc2)C(=O)[C@H]31", "growth inhibition (%)": -7.95}
{"compound": "C=C1C(=O)OC2CC(C)C3CC(OCCCl)OC(OCCCl)C3(C)CC12 (stereo unspecified)", "growth inhibition (%)": -6.2}
{"compound": "CCCCNc1ccc(Cl)cc1", "growth inhibition (%)": -15.6}
{"compound": "NS(=O)(=O)c1cccc(C(F)(F)F)c1", "growth inhibition (%)": -7.2}

Measured growth inhibition, C#CCN(CCCC)CCCC : -10.3
